Where do the numbers come from? From the supplement of paper PMC12645437.

- study target: T1, CRBN, Q96SW2;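 note: pooled lentiviral library of zinc finger degron-EGFP fusions in mCherry-positive Jurkat cells, FACS-sorted after compound exposure, with degron abundance counted by next-generation sequencing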
- T1 chain: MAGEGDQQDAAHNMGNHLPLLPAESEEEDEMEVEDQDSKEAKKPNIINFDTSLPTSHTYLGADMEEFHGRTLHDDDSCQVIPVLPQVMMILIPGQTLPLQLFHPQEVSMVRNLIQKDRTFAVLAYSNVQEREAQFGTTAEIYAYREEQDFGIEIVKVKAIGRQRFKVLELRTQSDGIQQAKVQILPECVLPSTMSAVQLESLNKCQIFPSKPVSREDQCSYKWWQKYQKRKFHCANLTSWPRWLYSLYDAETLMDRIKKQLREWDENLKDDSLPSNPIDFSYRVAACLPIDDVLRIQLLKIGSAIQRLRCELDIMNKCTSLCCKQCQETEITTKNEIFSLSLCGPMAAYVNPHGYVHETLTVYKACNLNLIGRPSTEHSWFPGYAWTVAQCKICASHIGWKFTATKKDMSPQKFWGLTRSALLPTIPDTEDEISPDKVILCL
- assay details: log2 fold change of degron read counts, EGFP-low vs EGFP+ sorted cells (limma voom), compound-induced degradation; higher = more compound-induced degradation of the degron-EGFP fusion; degrons are variants of IKZF1/3 zinc finger 2; compound dose not given here
- condition context: Jurkat; 18 h; compound: compound 33 (diphenyl IMiD analogue)
Over roughly 8,300 sequences, “log2 fold change of degron read counts, EGFP-low vs EGFP+ sorted cells (limma voom), compound-induced degradation” has its median near -1.1; the highest 2% begin near 3.2. Many of the other results were omitted from the sample, so the highest values are more common in it than they were.
Assign log2 fold change of degron read counts to each entry below.
Respond using a number only.

sequence FVCEICGADFTQKGNLLRHIKL [46F_47V_49E_50I_52G_53A_54D_55F_67L_, Q9UKT9] , log2 fold change of degron read counts observed: -0.517

sequence FVCEICGAPFTQKGNLLRHIKL [46F_47V_49E_50I_52G_53A_54P_55F_67L_, Q9UKT9] , log2 fold change of degron read counts observed: 2.49

sequence FNCEICGADFTQKGNLLRHIKL [46F_47N_49E_50I_52G_53A_54D_55F_67L_, Q9UKT9] , log2 fold change of degron read counts observed: -1.14

sequence FFCEICGAPFTQKGNLLRHIKL [46F_47F_49E_50I_52G_53A_54P_55F_67L_, Q9UKT9] , log2 fold change of degron read counts observed: 2.28

sequence LRCPICGFHCTQKGNLLRHIKL [46L_47R_49P_50I_52G_53F_54H_55C_67L_, Q9UKT9] , log2 fold change of degron read counts observed: 1.59

sequence FYCEICGAPFTQKGNLLRHIKL [46F_47Y_49E_50I_52G_53A_54P_55F_67L_, Q9UKT9] , log2 fold change of degron read counts observed: 3.06

sequence FGCEICGAPFTQKGNLLRHIKL [46F_47G_49E_50I_52G_53A_54P_55F_67L_, Q9UKT9] , log2 fold change of degron read counts observed: -0.557

sequence FYCEICGADFTQKGNLLRHIKL [46F_47Y_49E_50I_52G_53A_54D_55F_67L_, Q9UKT9] , log2 fold change of degron read counts observed: 0.298
